Attribution: PubChem BioAssay

Assay: viability loss with induced miR-34 in A549 – imaging, A549 dox-inducible miR-34, nuclei and caspase counts, primary screen (AID 1347080); also: test concentration not given here
Details: A549 miR-34 inducible, Hoechst nuclei count, 48 h; measured here: total cells with miR-34 induction; stronger effect = lower value

[
  {
    "Compound": "FC(F)(F)c1cc(CO[C@H]2CCCN[C@H]2c2ccccc2)cc(C(F)(F)F)c1",
    "cell count": 2150
  },
  {
    "Compound": "CCc1cccc(CC)c1NC(=O)N1Cc2[nH]nc(NC(=O)c3ccc(N4CCN(C)CC4)cc3)c2C1",
    "cell count": 2360
  },
  {
    "Compound": "O[C@@H]1[C@H](O)[C@@H](CCl)O[C@H]1n1cnc2c(NC3CC4CCC3C4)ncnc21 (stereo partly drawn)",
    "cell count": 8570
  }
]
